Where do these numbers come from? They come from a melting point compilation (Tetko et al.; mined from patent text by program, amines drawn as free bases though some values may be those of a salt).

measuredMetric: melting point

O=S1(=O)c2cccc3cccc(c23)N1CCN1CCC(CC2C=Cc3ccccc32)CC1 (stereo unspecified): 166 °C
COc1ccc(C(=O)C=Cc2cc(O)c(O)c([N+](=O)[O-])c2)cc1OC: 206 to 208 °C
CC(=NNc1ccccc1)c1c(-c2ccccc2)noc1C: 129 to 133 °C
CCOCc1nc2c(N)nc3ccccc3c2n1CC1(OCCS(C)(=O)=O)CCCC1: 163 to 165 °C
Nc1cc(OCC2CC2)c(C(=O)NC2CN3CCC2CC3)cc1Cl (stereo unspecified): 183 to 185 °C

In the following, a different compound is considered.
Problem: Recall and state the measured melting point for "CC(C)(CCCc1cccc2cncn12)CC(=O)O" .
Solution: 124 to 129 °C

###

Provide the reported melting point of each item.

Take a look at these entries with their results.
Cc1cc(=O)c(-c2ccc(Cl)c(Cl)c2)c(-c2ccccc2)o1: 104 °C
CN1CCN(c2cc(Cl)cc3c2c(=O)n(Cc2ccc(Br)cc2)c(=O)n3Cc2ccccc2)CC1: 93 to 98 °C
NC(=O)CCN1CCC(C2c3ccccc3C=Cc3ccccc32)CC1: 135 to 140 °C
O=c1c2ccc(Cl)cc2[nH]c2c(O)nn(-c3ccc(O)c(Cl)c3)c(=O)c12: 350 to 353 °C

In the following, a different molecule is considered.
Problem: Recall and state the measured melting point for CCOC(=O)CC1c2cc(C(F)(F)F)ccc2C(=O)N1CC(F)(F)F (racemic) .
Solution: 54.5 to 55.5 °C

###

Provide the reported melting point of each item.

O=C(NC(CS)Cc1ccccc1)N1CCN(c2cccc(C(F)(F)F)c2)CC1 (single isomer, unassigned; (+)): 130 to 132 °C
CC(=O)c1ccc(OCCCN2CCC(c3noc4cc(F)ccc34)CC2)c(O)c1: 122 to 124 °C
CNS(=O)(=O)N1C[C@H](SC(c2ccccc2)(c2ccccc2)c2ccccc2)C[C@H]1COCc1ccccc1: 140 to 142 °C
CCOCc1nc2c(N)nc3cc(-c4cn[nH]c4)ccc3c2n1CC(C)(C)O: > 250 °C

Record melting point for all entries; do not skip any.
1. CC(C)(C)[Si](C)(C)Oc1ccc(NC(=O)CCCl)cc1
2. Nc1cc(O)c2c(c1)C(=O)c1cccc(O)c1C2=O
3. CC1(C)c2cc(OCc3ccccc3)ccc2OC1CO (centres undefined)
4. CC(C)C(NC(=O)OCCN1CCOCC1)C(=O)NC(Cc1ccccc1)C(O)C(Cc1ccccc1)NC(=O)C(NC(=O)OCCN1CCOCC1)C(C)C (centres undefined)

Solution:
126 °C
250 to 252 °C
55 to 58 °C
122 to 123 °C

Problem: Recall and state the measured melting point for "CCCOc1ccccc1-c1nc2nc(NCCO)ncc2c(=O)[nH]1" .
Solution: 204 to 206 °C

###

measuredMetric: melting point

Take a look at these entries with their results.
Nc1sc2c(c1C(=O)c1ccccc1)CCNC2: 160 to 162 °C
O=c1c(-c2ccccc2)c[nH]n1-c1cccc(C(F)(F)F)c1: 210 to 213 °C
CSc1ccc(C(C)Nc2nc(N)nc(C(F)(F)F)n2)cc1 (stereo not given): 111 °C
NC1CCc2[nH]c3ccccc3c2C1 (stereo not given): 160 to 166 °C

In the following, a different molecule is considered.
Problem: Recall and state the measured melting point for "N=C(c1ccccc1)c1cc(F)cc(NC(=O)/C=C/c2ccccn2)c1" .
Solution: 205 to 207 °C
